Each item that follows carries a reported viability, T/C.
System: PDC tumor spheroids with HUVEC/MSC, viability;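 also: spheroids exposed to drugs for seven days before readout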
Experiment: Anticancer human tumor 439559-082-T-J2-PDC patient-derived colon adenocarcinoma cell line growth inhibition [TAK]
Conditions: second compound 0.949 µM; first compound 0.001 µM; hits give low values
Output spec: scalar in %, unitless text.

Worked cases, viability, T/C given:
// output viability, T/C; input CC(C)n1nc(-c2ccc3oc(N)nc3c2)c2c(N)ncnc21 + CC(C)NCC(C(=O)N1CCN(c2ncnc3c2C(C)CC3O)CC1)c1ccc(Cl)cc1 ; system PDC tumor spheroids with HUVEC/MSC, viability 101

// output viability, T/C; input CC(C)CC(NC(=O)C(Cc1ccccc1)NC(=O)c1cnccn1)B(O)O (centres undefined) + CC(C)NCC(C(=O)N1CCN(c2ncnc3c2C(C)CC3O)CC1)c1ccc(Cl)cc1 ; system PDC tumor spheroids with HUVEC/MSC, viability 105

// output viability, T/C; input COC1CC2CCC(C)C(O)(O2)C(=O)C(=O)N2CCCCC2C(=O)OC(C(C)CC2CCC(OCCO)C(OC)C2)CC(=O)C(C)C=C(C)C(O)C(OC)C(=O)C(C)CC(C)C=CC=CC=C1C (centres undefined) + CC(C)NCC(C(=O)N1CCN(c2ncnc3c2C(C)CC3O)CC1)c1ccc(Cl)cc1 ; system PDC tumor spheroids with HUVEC/MSC, viability 88.6

Continuing:
// output viability, T/C; input CC(C)CC(NC(=O)CNC(=O)c1cc(Cl)ccc1Cl)B1OC(=O)CC(CC(=O)O)(C(=O)O)O1 (centres undefined) + CC(C)NCC(C(=O)N1CCN(c2ncnc3c2C(C)CC3O)CC1)c1ccc(Cl)cc1 ; system PDC tumor spheroids with HUVEC/MSC, viability 107
